Known pAMPK/AMPK (ratio) siRNA, unrelated siRNA of a selection of compounds
test system: AdipoR1; assay: Measurement of AMPK phosphorylation ability (Assay 2), C2C12 cells with unrelated or AdipoR1 siRNA; format: cell-based, Mouse; conditions: unrelated siRNA

Below are worked cases with known answers.
- COMPOUND: "CCc1ccc(CN2CCC(Oc3ccc(C(=O)NCCOC)cc3Cl)CC2)cc1 [No. 466151]"
  TARGET_DESC: "AdipoR1"
  RESULT: "2.22 ratio"
- COMPOUND: "COc1ccccc1CN1CCC(Oc2ccc(C(=O)NC3CCCC3)cc2Cl)CC1 [No. 272299]"
  TARGET_DESC: "AdipoR1"
  RESULT: "2.83 ratio"
- COMPOUND: "COCCNC(=O)c1ccc(OC2CCN(Cc3ccc(C)s3)CC2)c(Cl)c1 [No. 197372]"
  TARGET_DESC: "AdipoR1"
  RESULT: "1.78 ratio"

Prompt: Report value: pAMPK/AMPK (ratio) siRNA, unrelated siRNA, system: AdipoR1, compound: CC(C)N(Cc1cnn(C)c1)C(=O)c1ccc(OC2CCN(Cc3ccccn3)CC2)cc1 [No. 206685]
Completion: 1.76 ratio

Prompt: Report pAMPK/AMPK (ratio) siRNA, unrelated siRNA under test system AdipoR1 for O=C(COc1ccc(C(=O)c2ccccc2)cc1)NC1CCN(Cc2ccccc2)CC1 [Compound 73] .
Completion: 4.75 ratio

Prompt: GET pAMPK/AMPK (ratio) siRNA, unrelated siRNA where system = AdipoR1 and item = COc1ccc(CN2CCN(C(=O)CCNC(=O)c3ccc(C(C)(C)C)cc3)CC2)cc1C [No. 183665]
Completion: 2.88 ratio

Prompt: Please report pAMPK/AMPK (ratio) siRNA, unrelated siRNA with AdipoR1 for item O=C(NC1CCN(Cc2ccccc2)CC1)c1ccc(Cl)c(Cl)c1 [No. 550212] .
Completion: 1.91 ratio

Prompt: Check AdipoR1 data and give pAMPK/AMPK (ratio) siRNA, unrelated siRNA for COCc1ccc(CN2CCC(Oc3ccc(C(=O)NC4CCCC4)cc3Cl)CC2)o1 [No. 195831] .
Completion: 2.88 ratio

Prompt: Under AdipoR1, report pAMPK/AMPK (ratio) siRNA, unrelated siRNA for COc1ccc(CN2CCN(C(=O)CCNC(=O)c3ccc(C(C)(C)C)cc3)CC2)cc1 [Compound 74]
Completion: 3.70 ratio

###

Target: AdipoR1 (Mus musculus, UniProt Q91VH1)
Construct: C2C12 cells (ATCC; CRL-1772, medium; host or cells: differentiated C2C12
Sequence (Q91VH1 1-375): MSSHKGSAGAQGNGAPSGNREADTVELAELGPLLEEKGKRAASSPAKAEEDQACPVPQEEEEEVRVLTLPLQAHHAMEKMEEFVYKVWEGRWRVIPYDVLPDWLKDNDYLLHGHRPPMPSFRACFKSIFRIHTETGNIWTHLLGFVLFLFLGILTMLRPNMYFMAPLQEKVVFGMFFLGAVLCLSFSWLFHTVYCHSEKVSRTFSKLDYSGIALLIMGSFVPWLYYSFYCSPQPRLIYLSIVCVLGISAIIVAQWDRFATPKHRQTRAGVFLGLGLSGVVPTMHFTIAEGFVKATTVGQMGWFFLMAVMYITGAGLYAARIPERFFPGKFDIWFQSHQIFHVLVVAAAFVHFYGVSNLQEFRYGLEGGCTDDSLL
Experiment: Measurement of AMPK phosphorylation ability (Assay 1), differentiated C2C12 cells, Western blotting
Type: cell-based
Conditions: 10 μM, 10 minutes
# pAMPK/AMPK (%) per entry
Respond with the bare value in %.

- MOLECULE: "O=C(NC1CCCC1)c1ccc(OC2CCN(Cc3ccoc3)CC2)c(Cl)c1 [No. 268508]"
  READOUT_NUMBER: 80.12
- MOLECULE: "Cc1ccccc1CN1CCC(Oc2ccc(C(=O)NCc3ccccn3)cc2)CC1 [No. 198637]"
  READOUT_NUMBER: 87.39
- MOLECULE: "COCCNC(=O)c1ccc(OC2CCN(Cc3cc(OC)ccc3F)CC2)c(Cl)c1 [No. 274971]"
  READOUT_NUMBER: 81.64
- MOLECULE: "O=C(NC1CCCC1)c1ccc(OC2CCN(Cc3cccc(O)c3)CC2)c(Cl)c1 [No. 251327]"
  READOUT_NUMBER: 83.18
- MOLECULE: "COc1ccccc1N1CCN(CCC(=O)Nc2ccccc2Cl)CC1 [No. 189640]"
  READOUT_NUMBER: 82.40

Prompt: Return reported pAMPK/AMPK (%). Input molecule: COCCNC(=O)c1ccc(OC2CCN([C@@H](C)COc3ccccc3)CC2)c(Cl)c1 [No. 211156]
Completion: 93.79

Prompt: Find the measured pAMPK/AMPK (%) of COCCNC(=O)c1ccc(OC2CCN(Cc3cc4ccccc4o3)CC2)c(Cl)c1 [No. 473771] and report it.
Completion: 85.03

Prompt: Give pAMPK/AMPK (%) for COc1ccc(CN2CCN(C(=O)CCNC(=O)c3ccc(C(C)(C)C)cc3)CC2)cc1C [No. 183665]
Completion: 99.03

Prompt: Hello, please tell me recorded pAMPK/AMPK (%) for this one: CCOc1cccc(CN2CCC(Oc3ccc(C(=O)NCCOC)cc3Cl)CC2)c1 [No. 214617]
Completion: 91.97

Prompt: Given the molecule O=C(NCc1ccncc1)c1ccc(OC2CCN(Cc3ccoc3)CC2)cc1 [No. 196462] , write its reported pAMPK/AMPK (%).
Completion: 82.72

Prompt: Retrieve pAMPK/AMPK (%) measured for O=C(NCCc1ccc(Cl)cc1)c1ccc(OC2CCN(Cc3ccccn3)CC2)cc1 [No. 264785] and print it.
Completion: 80.62

Prompt: Give the value of pAMPK/AMPK (%) reported for the following: CC#CCN(Cc1ccco1)C(=O)c1ccc(OC2CCN(Cc3ccccn3)CC2)cc1 [No. 272350]
Completion: 84.20

###

Listing: pAMPK/AMPK (%) of selected molecules
biological target: AdipoR1 (Homo sapiens, UniProt Q96A54); experiment: Measurement of AMPK phosphorylation ability (Assay 1), HEK 293T cells, Western blotting; format: cell-based; parameters: HEK 293T cells (ATCC; CRL-3216, medium; host or cells: HEK 293T; details: 25 μM, 10 minutes
Sequence (Q96A54 whole entry): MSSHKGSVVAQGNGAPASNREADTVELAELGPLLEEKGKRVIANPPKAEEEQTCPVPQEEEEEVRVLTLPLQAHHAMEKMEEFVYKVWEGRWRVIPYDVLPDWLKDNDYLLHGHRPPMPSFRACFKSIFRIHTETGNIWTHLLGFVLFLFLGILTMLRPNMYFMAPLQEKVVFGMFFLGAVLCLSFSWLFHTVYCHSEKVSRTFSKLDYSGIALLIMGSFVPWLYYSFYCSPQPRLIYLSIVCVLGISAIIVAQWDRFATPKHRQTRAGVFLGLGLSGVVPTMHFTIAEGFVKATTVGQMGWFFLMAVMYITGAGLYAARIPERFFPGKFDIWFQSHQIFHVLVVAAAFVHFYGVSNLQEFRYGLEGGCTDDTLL
Value expressed in %; do not type the unit.

These solved cases illustrate the format of a correct answer.
- MOLECULE: "Cc1cccc(CN2CCC(NC(=O)COc3ccc(C4SCCCS4)cc3)CC2)c1 [Compound 28]"
  pAMPK/AMPK (%): 71.21
- MOLECULE: "O=C(COc1ccc(C(=O)c2ccc(Cl)cc2)cc1)NC1CCN(Cc2ccccc2)CC1 [Compound 11]"
  pAMPK/AMPK (%): 83.12
- MOLECULE: "O=C(COc1ccc(Oc2ccccn2)cc1)NC1CCN(Cc2ccc(F)cc2)CC1 [Compound 48]"
  pAMPK/AMPK (%): 80.04

Prompt: Return pAMPK/AMPK (%) for the following molecule: O=C(COc1ccc(N2CCCC2=O)cc1)NC1CCN(C(=O)c2ccccc2F)CC1 [Compound 25]
Completion: 40.07

Prompt: Determine its reported pAMPK/AMPK (%): NC(=O)c1ccc(OCC(=O)NC2CCN(Cc3ccc(Br)cc3)CC2)cc1 [Compound 21]
Completion: 81.11

Prompt: Determine from records and report pAMPK/AMPK (%) for O=C(COc1ccc(I)cc1)NC1CCN(Cc2ccccc2)CC1 [Compound 10]
Completion: 83.62

Prompt: For the molecule COc1cc(C(C)=O)ccc1OCC(=O)NC1CCN(C(C)c2ccccc2)CC1 (stereo not drawn) [Compound 13] , give its reported pAMPK/AMPK (%).
Completion: 40.65

Prompt: Output pAMPK/AMPK (%) of Cc1ccccc1CN1CCC(NC(=O)COc2ccc(Oc3ccccn3)cc2)CC1 [Compound 46]
Completion: 80.93

Prompt: Return pAMPK/AMPK (%) (reported value) for this molecule: COc1ccc(CN2CCN(C(=O)CCNC(=O)c3ccc([N+](=O)[O-])cc3)CC2)cc1F [Compound 68]
Completion: 53.92

Prompt: Supply measured pAMPK/AMPK (%) of O=C(NCCC(=O)N1CCN(Cc2cccc(O)c2)CC1)c1ccc(Cl)cc1 [Compound 54] in your reply.
Completion: 57.51

Prompt: Provide one value: measured pAMPK/AMPK (%) of O=C(NCCC(=O)N1CCN(Cc2cccc(O)c2)CC1)c1ccc(Br)cc1 [Compound 56]
Completion: 49.23

Prompt: Supply pAMPK/AMPK (%) value. Item: COc1ccc(CN2CCN(C(=O)CCNC(=O)c3ccc(Br)cc3)CC2)cc1OC [Compound 59]
Completion: 74.09

Prompt: Determine its reported pAMPK/AMPK (%): COc1ccc(CN2CCC(NC(=O)COc3ccc(C(F)(F)F)cc3)CC2)cc1F [Compound 35]
Completion: 80.77

Prompt: Tell us which pAMPK/AMPK (%) value is on record for CCc1ccc(OCC(=O)NC2CCN(C(C)c3ccccc3)CC2)cc1 (stereo not drawn) [Compound 31]
Completion: 80.60

Prompt: Dear colleague, please send me the reported pAMPK/AMPK (%) for O=C(NCCC(=O)N1CCN(Cc2ccc(F)cc2Cl)CC1)c1ccc(Cl)cc1 [Compound 55] when you can.
Completion: 61.64

Prompt: Please give measured pAMPK/AMPK (%) of the following entry: COc1ccc(OC)c(CN2CCN(C(=O)CCNC(=O)c3ccc([N+](=O)[O-])cc3)CC2)c1 [Compound 66]
Completion: 43.00

Prompt: Provide pAMPK/AMPK (%) value for the following molecule: CC(c1ccccc1)N1CCC(NC(=O)COc2ccc(Oc3ccccn3)cc2)CC1 (stereo not drawn) [Compound 47]
Completion: 80.31

Prompt: Tell me pAMPK/AMPK (%) reported for O=C(COc1ccc(Oc2ccccc2)cc1)NC1CCN(Cc2ccccc2)CC1 [Compound 36]
Completion: 80.42
